# protocol.details: NCI Yeast Anticancer Drug Screen. Data for the bub3 strain (AID 167)
# experimental.setup: S. cerevisiae bub3 mutant strain, at 5.0 µM (retest, dose inferred, filed as 0.5)
Compounds without any hit were thinned out: in the full panel of roughly 79,000, 15% have a hit. Activity calls are given as the source filed them. No stated cut-off is given here; in the data, active means growth inhibition above about 70%; inactive means the rest.
Outcome codes: active, inactive

# molecule, label.class
rows = [
    ("CCc1cccc(C)c1NC(=O)/C(Cl)=C(\\Cl)C(=O)O", "active"),
    ("CCC[n+]1ccc(/C=N\\NC(N)=S)c2ccccc21", "inactive"),
    ("CCCCCCCCCCCC[N+]1(C)CCCC1c1cccnc1 (stereo not given)", "inactive"),
    ("C/C(=C\\N1CCN(c2ccc(Cl)cc2)C(C)C1)C(=O)c1ccccc1 (stereo not given)", "inactive"),
    ("O=c1cc2cccccc-2cc1O", "inactive"),
    ("O=C(c1ccc(F)cc1)c1ccc(Cl)cc1Cl", "active"),
    ("C/C([O-])=C1\\Cc2ccccc2C1=O.C/C([O-])=C1\\Cc2ccccc2C1=O.CC[O-].CC[O-].[Ti+4]", "inactive"),
    ("CCC(=O)NC1=C(Cl)C(=O)c2ccccc2C1=O", "active"),
    ("CC(=O)OC(OC(C)=O)c1ccc2ccc3cccc4ccc1c2c34", "inactive"),
    ("O=C(O)c1cccc(S(=O)(=O)NN2C(=O)CSC2c2c(O)ccc3ccccc23)c1 (stereo not given)", "inactive"),
    ("CC(C)(C)C(=O)OC12/C(=N/O)CCCCCC1c1ccccc12 (stereo not given)", "inactive"),
    ("CCCCC(O)(c1ccc2nc(NC(=O)OC)[nH]c2c1)c1cccs1 (stereo not given)", "inactive"),
    ("Nc1cc(F)c2c(c1F)C(=O)c1cc(F)ccc1-2", "inactive"),
    ("O=c1[nH]cnc2nc(I)[nH]c12", "inactive"),
    ("Cc1ccc(S(=O)(=O)NCCSSCCNS(=O)(=O)c2ccc(C)cc2)cc1", "inactive"),
    ("CC(C)C1=C(O)c2ccccc2C(=O)C1=O", "inactive"),
    ("COc1ccc(NC(=S)N/N=C/c2cccc(C)n2)cc1", "inactive"),
    ("CN(C)CC1CCC/C(=C\\c2ccc(Cl)c(Cl)c2)C1=O (stereo not given)", "inactive"),
    ("CCCCCCCCCCCCCC(=O)NO", "active"),
    ("COc1ccc(OP2(Oc3ccc(OC)cc3)=NP(Oc3ccc(OC)cc3)(Oc3ccc(OC)cc3)=NP(Oc3ccc(OC)cc3)(Oc3ccc(OC)cc3)=NP(Oc3ccc(OC)cc3)(Oc3ccc(OC)cc3)=N2)cc1", "inactive"),
]

* * *

# protocol.details: NCI Yeast Anticancer Drug Screen. Data for the cln2 rad14 strain (AID 165);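 further: 0% = growth equal to vehicle treated cultures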
# experimental.setup: S. cerevisiae cln2 rad14 strain, at 50.0 µM (retest, dose inferred, filed as 5.0), stronger effect = higher value
# Procedure: Growth inhibition of yeast strains with defined genetic alterations is measured as a screen for potential anti-cancer activity. Selected strains with alterations in DNA damage repair or cell cycle control were exposed to compounds and growth inhibition was measured relative to vehicle treated controls. The strain used in this assay is cln2 rad14
About 79,000 compounds went through this panel and 15% of them were active in at least one assay; those are over-represented in the sample as a whole.
Consider the following compounds and their measured growth inhibition readings.
property.name: growth inhibition (%)

# mol.smiles, property.name, measured.result
rows = [
    ("CN(C)c1ccc(/C=C(/C#N)c2ccc(Cl)cc2)cc1", "growth inhibition", -6),
    ("O=c1c(Cl)c(Cl)oc(Cl)c1Cl", "growth inhibition", 99),
    ("CCCCCCCCCCCc1ccn[nH]1", "growth inhibition", 99),
    ("CCCCCCCCCCCCNCc1ccc2c(c1)OCO2", "growth inhibition", 96),
    ("c1ccc2nc3ccccc3nc2c1", "growth inhibition", 36),
    ("COc1cc(CSc2ccc(O)cc2)cc(OC)c1OC", "growth inhibition", 4),
    ("O=[N+]([O-])c1ccc(/C(=C\\c2ccccc2)Cn2ccnc2)cc1", "growth inhibition", 91),
    ("CNc1ccc([N+](=O)[O-])cc1", "growth inhibition", 1),
]
